testedTarget: ganglionic receptors (ganglionic-type nicotinic receptors) (Rattus norvegicus, UniProt P04757+P12392)
Construct: endogenous in cells; host or cells: cell preparations derived from the adrenal gland
Sequence (P04757 26-499): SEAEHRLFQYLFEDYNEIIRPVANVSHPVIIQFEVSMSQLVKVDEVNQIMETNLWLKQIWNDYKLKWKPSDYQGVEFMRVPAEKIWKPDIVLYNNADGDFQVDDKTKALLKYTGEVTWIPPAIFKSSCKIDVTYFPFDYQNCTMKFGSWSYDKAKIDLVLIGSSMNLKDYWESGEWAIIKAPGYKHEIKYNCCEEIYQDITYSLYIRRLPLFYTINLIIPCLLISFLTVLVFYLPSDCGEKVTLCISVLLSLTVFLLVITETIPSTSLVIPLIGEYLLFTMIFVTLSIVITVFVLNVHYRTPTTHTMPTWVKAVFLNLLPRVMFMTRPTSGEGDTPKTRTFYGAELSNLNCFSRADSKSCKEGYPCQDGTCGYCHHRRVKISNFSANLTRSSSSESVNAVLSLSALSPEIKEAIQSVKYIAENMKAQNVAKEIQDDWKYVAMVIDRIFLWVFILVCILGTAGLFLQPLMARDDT
Sequence (P12392 21-495): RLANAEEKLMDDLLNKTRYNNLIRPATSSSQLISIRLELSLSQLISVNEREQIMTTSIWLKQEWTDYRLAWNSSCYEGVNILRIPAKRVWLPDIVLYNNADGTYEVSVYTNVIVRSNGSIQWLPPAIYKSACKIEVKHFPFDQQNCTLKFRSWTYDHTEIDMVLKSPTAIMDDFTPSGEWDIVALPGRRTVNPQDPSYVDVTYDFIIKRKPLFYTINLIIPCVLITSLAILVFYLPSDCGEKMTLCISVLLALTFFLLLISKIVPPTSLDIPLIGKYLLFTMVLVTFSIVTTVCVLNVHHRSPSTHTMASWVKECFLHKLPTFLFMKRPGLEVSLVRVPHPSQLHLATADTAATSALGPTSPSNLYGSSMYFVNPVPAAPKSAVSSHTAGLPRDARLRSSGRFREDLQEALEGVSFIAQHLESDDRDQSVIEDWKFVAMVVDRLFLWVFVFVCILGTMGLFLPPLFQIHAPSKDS
protocolText: Determination of interaction with ganglia
Assay type: cell-based
settings: maximal activation (Emax) as percentage of maximal activation induced by (S)-(-)-nicotine
Excerpt: By this is meant that a particular dose of compound resulting in prevention and/or treatment of a CNS disorder is essentially ineffective in eliciting activation of certain ganglionic-type nicotinic receptors. […] As such, the compounds of the present invention have poor ability to cause isotopic rubidium ion flux through nicotinic receptors in cell preparations derived from the adrenal gland. […]
assayMetric: Ganglion Effect (% nicotine)

Reported Ganglion Effect (% nicotine), molecule CNCC/C=C/c1cncc(OC(C)C)c1 [Sample No. 4] : ____
<15 % nicotine

Also CCOc1cncc(/C=C/CCNC)c1 [Sample No. 7] , if possible.
<15 % nicotine

Also CNCC/C=C/c1cncc(Oc2ccccc2)c1 [Sample No. 3] , if possible.
<15 % nicotine

Values were extracted from patent US6531606B1.
